# PROTOCOL: Lipophilicity, log D of the compound
# Type: physicochemical
# EXPERIMENTAL_PARAMETERS: octanol/water
MEASURED_METRIC: logD
Enter a number only.

Would you mind telling me what logD value was observed for N#C[C@@H]1C[C@H]1c1c(Cl)ccc2nc(Cn3nc(C(F)(F)F)cc3Cl)cc(=O)n12 ?
1.8

====

# TARGET_OR_SYSTEM: Glutamate receptor 2 (Homo sapiens)
# PROTOCOL: Positive allosteric modulation of human GluA2 receptor flop isoform assessed as increase in glutamate-induced calcium flux at 125 uM measured at time interval of 5 mins in presence of saturating glycine by calcium dye-based fluorescence assay relative to glutamate
# Type: Functional, single protein
MEASURED_METRIC: Emax at 125 µM (%)
Lab book: enter the figure in %, no units written.

Would you mind telling me what Emax at 125 µM value was observed for Cc1sc2nc(Cn3nc(C(F)(F)F)cc3Cl)cc(=O)n2c1[C@@H]1C[C@H]1C#N ?
93

Would you mind telling me what Emax at 125 µM value was observed for N#C[C@@H]1C[C@H]1c1cc(C(F)(F)F)cc2nc(Cn3nc(C(F)(F)F)cc3Cl)cc(=O)n12 ?
77

Would you mind telling me what Emax at 125 µM value was observed for Cc1sc2nc(Cn3nc(C(F)(F)F)cc3Cl)cc(=O)n2c1-c1cncnc1 ?
9

Would you mind telling me what Emax at 125 µM value was observed for N#C[C@@H]1C[C@H]1c1c(Cl)ccc2nc(Cn3nc(C(F)(F)F)cc3Cl)cc(=O)n12 ?
67

Would you mind telling me what Emax at 125 µM value was observed for Cc1sc2nc(Cn3nc(C(F)(F)F)cc3Cl)cc(=O)n2c1C1CC1 ?
32

Would you mind telling me what Emax at 125 µM value was observed for Cc1cc([C@@H]2C[C@H]2C#N)n2c(=O)cc(Cn3nc(C(F)(F)F)cc3Cl)nc2c1 ?
83

Would you mind telling me what Emax at 125 µM value was observed for N#C[C@@H]1C[C@H]1c1c(F)ccc2nc(Cn3nc(C(F)(F)F)cc3Cl)cc(=O)n12 ?
69

Would you mind telling me what Emax at 125 µM value was observed for COc1cc([C@@H]2C[C@H]2C#N)n2c(=O)cc(Cn3nc(C(F)(F)F)cc3Cl)nc2c1 ?
67

Would you mind telling me what Emax at 125 µM value was observed for CCNC(=O)c1c(C)sc2nc(Cn3nc(C(F)(F)F)cc3Cl)cc(=O)n12 ?
16

Would you mind telling me what Emax at 125 µM value was observed for Cc1ccc2nc(Cn3nc(C(F)(F)F)cc3Cl)cc(=O)n2c1C1CC1 ?
3

Would you mind telling me what Emax at 125 µM value was observed for Cc1ccc2nc(Cn3nc(C(F)(F)F)cc3Cl)cc(=O)n2c1-c1cncnc1 ?
3

Would you mind telling me what Emax at 125 µM value was observed for Cc1ccc2nc(Cn3nc(C(F)(F)F)cc3Cl)cc(=O)n2c1[C@@H]1C[C@H]1C#N ?
63

Would you mind telling me what Emax at 125 µM value was observed for N#C[C@@H]1C[C@H]1c1cccc2nc(Cn3nc(C(F)(F)F)cc3Cl)cc(=O)n12 ?
90

Would you mind telling me what Emax at 125 µM value was observed for CCNC(=O)c1c(C)ccc2nc(Cn3nc(C(F)(F)F)cc3Cl)cc(=O)n12 ?
-1

Would you mind telling me what Emax at 125 µM value was observed for COc1ccc2nc(Cn3nc(C(F)(F)F)cc3Cl)cc(=O)n2c1[C@@H]1C[C@H]1C#N ?
15

====

# TARGET_OR_SYSTEM: Glutamate NMDA receptor; GRIN1/GRIN2A (Homo sapiens, UniProt Q05586+Q12879)
# PROTOCOL: Positive allosteric modulation of GluN1/GluN2A receptor (unknown origin) expressed in CHO cells assessed as increase in glutamate-induced calcium flux at 125 uM measured at time interval of 5 mins in presence of saturating glycine by calcium dye-based fluorescence assay relative to glutamate
# Assay type: cell-based
Exercise: state measured Emax for each of the compounds provided.
Lab book: enter the figure in %, no units written.

Would you mind telling me what Emax value was observed for CCNC(=O)c1c(C)ccc2nc(Cn3nc(C(F)(F)F)cc3Cl)cc(=O)n12 ?
129

Would you mind telling me what Emax value was observed for CCNC(=O)c1c(C)sc2nc(Cn3nc(C(F)(F)F)cc3Cl)cc(=O)n12 ?
120

Would you mind telling me what Emax value was observed for Cc1sc2nc(Cn3nc(C(F)(F)F)cc3Cl)cc(=O)n2c1C1CC1 ?
116

Would you mind telling me what Emax value was observed for N#C[C@@H]1C[C@H]1c1cc(C(F)(F)F)cc2nc(Cn3nc(C(F)(F)F)cc3Cl)cc(=O)n12 ?
142

Would you mind telling me what Emax value was observed for Cc1cc([C@@H]2C[C@H]2C#N)n2c(=O)cc(Cn3nc(C(F)(F)F)cc3Cl)nc2c1 ?
144

====

Exercise: state measured Emax for each of the molecules provided.
# TARGET_OR_SYSTEM: Glutamate NMDA receptor; GRIN1/GRIN2A (Homo sapiens, UniProt Q05586+Q12879)
# PROTOCOL: Positive allosteric modulation of GluN1/GluN2A receptor (unknown origin) expressed in CHO cells assessed as increase in glutamate-induced calcium flux at 125 uM measured at time interval of 5 mins in presence of saturating glycine by calcium dye-based fluorescence assay relative to glutamate
# Format: cell-based
Lab book: enter the figure in %, no units written.

Would you mind telling me what Emax value was observed for Cc1sc2nc(Cn3nc(C(F)(F)F)cc3Cl)cc(=O)n2c1-c1cncnc1 ?
88

Would you mind telling me what Emax value was observed for Cc1ccc2nc(Cn3nc(C(F)(F)F)cc3Cl)cc(=O)n2c1C1CC1 ?
107

Would you mind telling me what Emax value was observed for N#C[C@@H]1C[C@H]1c1cccc2nc(Cn3nc(C(F)(F)F)cc3Cl)cc(=O)n12 ?
148

Would you mind telling me what Emax value was observed for Cc1ccc2nc(Cn3nc(C(F)(F)F)cc3Cl)cc(=O)n2c1-c1cncnc1 ?
84

Would you mind telling me what Emax value was observed for N#C[C@@H]1C[C@H]1c1c(F)ccc2nc(Cn3nc(C(F)(F)F)cc3Cl)cc(=O)n12 ?
151

Would you mind telling me what Emax value was observed for Cc1sc2nc(Cn3nc(C(F)(F)F)cc3Cl)cc(=O)n2c1[C@@H]1C[C@H]1C#N ?
151

Would you mind telling me what Emax value was observed for COc1cc([C@@H]2C[C@H]2C#N)n2c(=O)cc(Cn3nc(C(F)(F)F)cc3Cl)nc2c1 ?
140

Would you mind telling me what Emax value was observed for COc1ccc2nc(Cn3nc(C(F)(F)F)cc3Cl)cc(=O)n2c1[C@@H]1C[C@H]1C#N ?
120

Would you mind telling me what Emax value was observed for Cc1ccc2nc(Cn3nc(C(F)(F)F)cc3Cl)cc(=O)n2c1[C@@H]1C[C@H]1C#N ?
137

====

Exercise: state measured Emax at 125 µM for each of the compounds provided.
# TARGET_OR_SYSTEM: Glutamate receptor 2 (Homo sapiens, UniProt P42262)
# Sequence (P42262 whole entry, canonical isoform): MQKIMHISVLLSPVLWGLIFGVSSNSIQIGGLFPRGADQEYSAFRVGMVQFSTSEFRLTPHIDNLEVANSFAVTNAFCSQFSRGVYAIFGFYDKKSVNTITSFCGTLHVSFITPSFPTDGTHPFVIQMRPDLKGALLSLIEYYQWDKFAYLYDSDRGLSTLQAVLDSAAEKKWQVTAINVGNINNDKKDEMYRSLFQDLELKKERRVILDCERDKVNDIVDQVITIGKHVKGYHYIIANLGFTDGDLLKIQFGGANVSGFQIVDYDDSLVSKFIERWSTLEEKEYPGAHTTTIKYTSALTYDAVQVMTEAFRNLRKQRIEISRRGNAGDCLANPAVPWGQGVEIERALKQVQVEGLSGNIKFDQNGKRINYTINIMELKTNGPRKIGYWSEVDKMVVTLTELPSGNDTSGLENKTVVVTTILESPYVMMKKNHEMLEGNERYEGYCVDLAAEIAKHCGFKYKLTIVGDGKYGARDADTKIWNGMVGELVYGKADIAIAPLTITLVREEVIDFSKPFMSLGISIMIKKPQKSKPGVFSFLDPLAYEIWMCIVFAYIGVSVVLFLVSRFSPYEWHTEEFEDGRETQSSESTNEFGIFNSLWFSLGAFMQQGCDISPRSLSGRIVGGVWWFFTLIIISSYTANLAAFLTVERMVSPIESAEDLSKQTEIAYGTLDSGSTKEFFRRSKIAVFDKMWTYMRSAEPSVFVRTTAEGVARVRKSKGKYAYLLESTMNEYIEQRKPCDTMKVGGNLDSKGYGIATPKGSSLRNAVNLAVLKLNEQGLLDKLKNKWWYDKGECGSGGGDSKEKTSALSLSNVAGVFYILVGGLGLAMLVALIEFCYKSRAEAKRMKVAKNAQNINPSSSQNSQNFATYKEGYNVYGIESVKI
# PROTOCOL: Positive allosteric modulation of human GluA2 receptor flip isoform assessed as increase in glutamate-induced calcium flux at 125 uM measured at time interval of 5 mins in presence of saturating glycine by calcium dye-based fluorescence assay relative to glutamate
# Assay type: single protein
Lab book: enter the figure in %, no units written.

Would you mind telling me what Emax at 125 µM value was observed for N#C[C@@H]1C[C@H]1c1cccc2nc(Cn3nc(C(F)(F)F)cc3Cl)cc(=O)n12 ?
90

Would you mind telling me what Emax at 125 µM value was observed for CCNC(=O)c1c(C)ccc2nc(Cn3nc(C(F)(F)F)cc3Cl)cc(=O)n12 ?
1

Would you mind telling me what Emax at 125 µM value was observed for Cc1ccc2nc(Cn3nc(C(F)(F)F)cc3Cl)cc(=O)n2c1C1CC1 ?
7
